These measurements were taken from patent US20250250227A1.

Test system: Female BALB/c mice
EXPERIMENTAL_DETAILS: Performance evaluation of in vivo delivery of Fluc mRNA lipid nanoparticle (IVIS, body and organs)
EXPERIMENTAL_CONDITIONS: Fluc mRNA LNP, 75 μL IV, 6 hours after injection, IVIS, spleen
Description: Animal preparation: Female BALB/c mice of 6-8 weeks old were selected and raised in an SPF grade breeding room. Animal testing was conducted in strict accordance with the guidelines of national health institutions and animal ethics requirements. […] The multiple of spleen delivery/total delivery of fluorescence expression intensity induced by lipid nanoparticle encapsulating luciferase mRNA (Fluc mRNA) with a representative amino lipid compound to amino lipid compound 118 is shown in Table 5.
Measured Spleen (fluorescence expression intensity), listed per entry for reference.
Just the number.

MOLECULE	ENDPOINT_RESULT
CC/C=C\CCOC(=O)CCCN(CCCN(C)C)C(=O)OC(CCCCCCCCC(=O)OC(CCCCCC)CCCCCC)CCCCCCCCC(=O)OC(CCCCCC)CCCCCC	8.42E+06

Would you kindly share the measured Spleen (fluorescence expression intensity) for CC/C=C\COC(=O)CCCN(CCCN(C)C)C(=O)OC(CCCCCCCCC(=O)OC(CCCCCC)CCCCCC)CCCCCCCCC(=O)OC(CCCCCC)CCCCCC ?
8.84E+06

I would be grateful if you could share the reported Spleen (fluorescence expression intensity) for CCCCCCC(CCCCCC)OC(=O)CCCCCCCCC(CCCCCCCCC(=O)OC(CCCCCC)CCCCCC)OC(=O)N(CCCN(C)C)CCC(=O)OCCCC .
8.05E+06

Consider the molecule CCCCCCCN(CCCN(C)C)C(=O)OC(CCCCCCCCC(=O)OC(CCCCCC)CCCCCC)CCCCCCCCC(=O)OC(CCCCCC)CCCCCC and give its measured Spleen (fluorescence expression intensity).
8.71E+05

Look at this molecule and give its reported Spleen (fluorescence expression intensity). CC/C=C\COC(=O)CCCCCN(CCCN(C)C)C(=O)OC(CCCCCCCCC(=O)OC(CCCCCC)CCCCCC)CCCCCCCCC(=O)OC(CCCCCC)CCCCCC
5.20E+06

Look up Spleen (fluorescence expression intensity): CCCCCCC(CCCCCC)OC(=O)CCCCCCCCC(CCCCCCCCC(=O)OC(CCCCCC)CCCCCC)OC(=O)N(CCCN(C)C)CCC(=O)OC(C)CCCCC (stereo not drawn)
6.56E+06

Which value of Spleen (fluorescence expression intensity) has been reported for CCCCCCC(CCCCCC)OC(=O)CCCCCCCCC(CCCCCCCCC(=O)OC(CCCCCC)CCCCCC)OC(=O)N(CCCCC(=O)OC(C)CCCC)CCCN(C)C (stereo not drawn) in the records?
7.03E+06

Which measured Spleen (fluorescence expression intensity) value corresponds to CCCCCCC(CCCCCC)OC(=O)CCCCCCCCC(CCCCCCCCC(=O)OC(CCCCCC)CCCCCC)OC(=O)N(CCCCC)CCCN(C)C ?
1.02E+06

Return reported Spleen (fluorescence expression intensity); argument: CCCCCCC(CCCCCC)OC(=O)CCCCCCCCC(CCCCCCCCC(=O)OC(CCCCCC)CCCCCC)OC(=O)N(CCCCC(=O)OC(C)CCC)CCCN(C)C (stereo not drawn)
5.56E+06
